assay: antimalarial activity against Dd2 strain (AID 2302);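 further: 0% = DMSO untreated growth and 100% = chloroquine plus artemisinin killed control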; conditions: P. falciparum Dd2 in RBCs, LDH growth readout, 72 h; at 2 µM
Calls of active or inactive are those of the source.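 How the source made its calls: active means growth inhibition above 50% at the single 2 µM test dose, taken to imply half-maximal potency below 2 µM; inactive means the rest.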
Outcome codes: YES (active), NO (inactive)

compound | assigned-category
O=[N+]([O-])c1cccc(CNCC2CCC(CNCc3cccc([N+](=O)[O-])c3)CC2)c1 (stereo not given) | YES
Cc1cc2ncn(-c3nccc(NCc4cccnc4)n3)c2cc1C | YES
CC(C)CNCc1cccc(-c2cccc(CN(CCCN3CCN(C)CC3)C(=O)Nc3ccccc3)c2)c1 | YES
COc1ccc2nccc([C@@H](O)CN3CCC(NCc4cc5ccccc5[nH]c4=O)CC3)c2c1 | NO
O=C(NCc1ccc(F)cc1)c1cnc(N2CCN(c3ccncc3)CC2)c(Cl)c1 | NO

====

assay: inhibition of 3D7 malaria parasite growth – strain 3D7 (AID 2306);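 further: 0% = DMSO wells and 100% = chloroquine plus artemisinin control wells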; conditions: P. falciparum 3D7 erythrocytic growth, LDH absorbance, 72 h; at 2 µM; hits give high values

molecule | growth inhibition / %
COc1cccc2cc(C(=O)N[C@@H](CC(C)C)C(=O)N[C@H](/C=N/N3CC(=O)NC3=O)CC(C)C)oc12 | 86
COc1ccc(OCCCCON2C(N)=NC(N)=NC2(C)C)cc1 | 92
COc1ccc2nccc(N3C[C@H]4C[C@@H]3CN4CCNCc3ccc4c(n3)NC(=O)CS4)c2n1 | 99
Oc1ccc(Cc2cc(Oc3c(I)cc(CCc4ncc[nH]4)cc3I)ccc2O)cc1 | 101
Oc1ccc2[nH]cc(C3CCN(CCCCCCCCCN4CCC(c5c[nH]c6ccc(O)cc56)CC4)CC3)c2c1 | 101
O=C(Nc1ccc(OC2CCN(Cc3ccccc3)C2)c(Cl)c1)c1ccc(F)cc1 (centres undefined) | 90
Cc1cc(N[C@@H](Cc2ccccc2)C(=O)Nc2ccccc2)nc(Nc2ccccc2)n1 | 101
CS(=O)(=O)c1ccc(-c2cncc(Nc3cccc([N+](=O)[O-])c3)c2)cc1 | 97
COc1cc(C=NNc2cc(C)nc3c(OC)cccc23)cc(OC)c1OC | 94

====

assay: human hepatoma cell viability loss – ATP luminescence, cytotoxicity control for P. falciparum antimalarial project, primary screen (AID 2303); conditions: HepG2 viability, 24-48 h, at 10 µM;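 further: 0% = DMSO wells and 100% = digitonin-killed cells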
Activity calls are given as the source filed them.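 Rule for the calls: active = inhibition above 50%; inactive = the rest.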
Classes used: y = active, n = inactive

compound | assigned-category
CCCCN1CCCN(Cc2cccc(NC(=O)c3ccc(-c4ccccc4)cc3)c2)CC1 | n
NC(=O)Nc1ccc2cn[nH]c2c1 | n
N#Cc1ccc(NC(=O)Nc2ccc(OC(F)(F)F)cc2)cc1 | n
c1ccc(-n2cncn2)cc1 | n
CC(CON1C(N)=NC(N)=NC1(C)C)Cc1ccc(Cl)cc1Cl (stereo unspecified) | y
c1ccc(CNc2nc(NCCc3cnc[nH]3)nc(NCc3cccc4ccccc34)n2)cc1 | n

====

Below is a list of entries, each paired with its recorded inhibition value.
target: L-lactate dehydrogenase (Plasmodium falciparum (isolate CDC / Honduras)); assay: PfLDH activity inhibition – cell lysate, 3D7 strain, counter-screen for P. falciparum growth inhibition project (AID 2304);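 further: 0% = vehicle and 100% = reference inhibitor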; details: P. falciparum 3D7 crude extract, LDH APAD/NBT absorbance; at 2 µM; hits give high values

compound | quantity-unit | inhibition
CC(C)CNCc1ccc(-c2ccccc2CN(C(=O)NCCc2ccccc2)C2CCN(Cc3ccccc3)CC2)cc1 | % | 2
Cc1cccc2[nH]c(-c3cccc(-c4ccc(NC(=O)Cc5cnc[nH]5)cc4)c3)nc12 | % | -3
Cc1cc(N)nc2ccc(-c3cccc(CN)c3)cc12 | % | -8
COc1cc(Nc2nccc(N3CCC(NC(=O)Nc4cccc(C(C)=O)c4)C3)n2)cc(OC)c1OC (centres undefined) | % | -3
CN1N=C2c3ccccc3CCC2C1c1ccc(C#N)cc1 (centres undefined) | % | 2
COc1ccc(NC(=O)Nc2ccc(-c3ccncc3)c(Cl)c2)cc1N1CCN(C)CC1 | % | 3
Cn1nc(C(F)(F)F)cc1-c1ccc(C(=O)Nc2ccc3c(c2)CNCC3(C)C)s1 | % | -1
CC(C)(C)OC(=O)NCc1ccc(Nc2nnc(-c3ccc(OCC(=O)NCc4cc(C(F)(F)F)cc(C(F)(F)F)c4)c([N+](=O)[O-])c3)o2)cc1 | % | -1
FC(F)(F)CNc1nc(Nc2ccc3ncccc3c2)nc2[nH]ccc12 | % | 0
